- METHOD_DESCRIPTION: The drug is tested on Z-016 corresponding to mouse gut metagenome with ENA study accession number: PRJEB37062 and ENA sample accession number: ERS12561815 for biotransformation under anaerobic condition. The drug concentrations were measured over 9 timepoints collected between 0 and 24 hours of incubation by liquid-chromatography-coupled mass spectrometry (LC–MS); note: call rule not given here
- CONDITION_PARAMETERS: 2 µM
MEASUREMENT_TYPE: Bacterial Biotransformation

Worked cases, Bacterial Biotransformation given:
{"MOLECULE": "O=C(Nc1ccccc1)OCC(CN1CCCCC1)OC(=O)Nc1ccccc1 (centres undefined) [DIPERODON]", "RESULT": "Compound NOT metabolized"}
{"MOLECULE": "CC(=O)CC(c1ccccc1)c1c(O)c2ccccc2oc1=O (centres undefined) [WARFARIN]", "RESULT": "Compound metabolized"}
{"MOLECULE": "OC(CCN1CCCCC1)(c1ccccc1)C1CCCCC1 (centres undefined) [TRIHEXYPHENIDYL]", "RESULT": "Compound metabolized"}
{"MOLECULE": "CCCCC(=O)N(Cc1ccc(-c2ccccc2-c2nnn[nH]2)cc1)[C@H](C(=O)O)C(C)C", "RESULT": "Compound NOT metabolized"}
{"MOLECULE": "Br.CN(C)CCCC1(c2ccc(F)cc2)OCc2cc(C#N)ccc21 (centres undefined) [CITALOPRAM HYDROBROMIDE]", "RESULT": "Compound NOT metabolized"}
{"MOLECULE": "CC(CN1c2ccccc2Sc2ccccc21)N(C)C (centres undefined) [PROMETHAZINE]", "RESULT": "Compound NOT metabolized"}
{"MOLECULE": "CCCc1nc(C(C)(C)O)c(C(=O)OCc2oc(=O)oc2C)n1Cc1ccc(-c2ccccc2-c2nnn[nH]2)cc1 [OLMESARTAN MEDOXOMIL]", "RESULT": "Compound metabolized"}
{"MOLECULE": "CNC(=C[N+](=O)[O-])NCCSCc1csc(CN(C)C)n1 [NIZATIDINE]", "RESULT": "Compound NOT metabolized"}
{"MOLECULE": "COc1c(C)c2c(c(O)c1C/C=C(\\C)CCC(=O)OCCN1CCOCC1)C(=O)OC2 [MYCOPHENOLATE MOFETIL]", "RESULT": "Compound metabolized"}
{"MOLECULE": "COc1ccccc1OCC(O)COC(N)=O (centres undefined) [METHOCARBAMOL]", "RESULT": "Compound NOT metabolized"}

Need Bacterial Biotransformation, item CN/C(=N/CCSCc1nc[nH]c1C)NC#N [CIMETIDINE] Compound NOT metabolized

Need Bacterial Biotransformation, item Cc1ccc(S(=O)(=O)NC(=O)NN2CCCCCC2)cc1 [TOLAZAMIDE] Compound metabolized

Need Bacterial Biotransformation, item COc1ccccc1N1CCN(CC(O)COc2cccc3ccccc23)CC1 (centres undefined) [NAFTOPIDIL] Compound NOT metabolized

Need Bacterial Biotransformation, item Cc1cn([C@H]2C[C@H](N=[N+]=[N-])[C@@H](CO)O2)c(=O)[nH]c1=O [ZIDOVUDINE] Compound NOT metabolized

Need Bacterial Biotransformation, item CN1C(=O)CCS(=O)(=O)C1c1ccc(Cl)cc1 (centres undefined) [CHLORMEZANONE] Compound NOT metabolized

Need Bacterial Biotransformation, item CC(C)NCC(O)c1ccc(NS(C)(=O)=O)cc1 (centres undefined) [SOTALOL] Compound NOT metabolized

Need Bacterial Biotransformation, item CN1C(=O)CC(C)(c2ccccc2)C1=O (centres undefined) [METHSUXIMIDE] Compound NOT metabolized

Need Bacterial Biotransformation, item C[C@@H]1CC[C@H]2[C@@H](C)C(=O)O[C@@H]3O[C@@]4(C)CC[C@@H]1[C@]32OO4 [ARTEMISININ] Compound metabolized

Need Bacterial Biotransformation, item CN1CCOC(c2ccccc2)c2ccccc2C1 (centres undefined) [NEFOPAM] Compound NOT metabolized
